# System: PC-3
# method: NCI tumour cell line growth inhibition, 48 h
Calls of active or inactive are those of the source. Rule as the data show it: active = GI50 up to about 1.1 µM and inactive = higher.
measured_property: GI50

>>> measurement("COc1cc2c(c(OC)c1OC)-c1ccc(SC)cc1[C@H](OC(=O)c1ccccc1)CC2")
"0.0673 µM (active)"
>>> measurement("ClCCc1ccccc1CC1=NCCc2ccccc21")
"30.5 µM (inactive)"
>>> measurement("CCCc1cn2c(/C=N/N=C(N)N)c(-c3c(OC)ccc(OC)c3[N+](=O)[O-])nc2s1")
"9.59 µM (inactive)"
>>> measurement("C[C@]12CCNC(=O)C=C1CC[C@@H]1C2CC[C@@]2(C)C1CC[C@@H]2OC(=O)COc1ccc(N(CCCl)CCCl)cc1 (stereo not given in full)")
"> 10 µM (inactive)"
>>> measurement("O=c1[nH]nc(Cc2ccc(Cl)cc2)n1/N=C/c1ccco1")
"> 100 µM (inactive)"

Item CC(=O)N(CCCCNC(=O)C(F)(F)F)CCCNC(=O)C(F)(F)F has what recorded GI50? > 100 µM (inactive)

Item C/C=C\C(CC(=O)NCCc1c[nH]c2ccccc12)CC(=O)OC (stereo not given) has what recorded GI50? > 100 µM (inactive)

Item C#CC1(O)CCC2[C@@H]3CCc4cc(Oc5nc(F)nc(-c6c(C)c(C(=O)OCC)n7ccccc67)n5)ccc4C3CC[C@@]21C (stereo not given in full) has what recorded GI50? > 100 µM (inactive)

Item Cc1cc2nc(C#N)c(N3CCN(c4ccc([N+](=O)[O-])cc4)CC3)nc2cc1C has what recorded GI50? > 100 µM (inactive)

Item c1ccc2c(CC3NCCN3)cccc2c1 has what recorded GI50? > 100 µM (inactive)

Item CCOC(=O)c1ccc(/N=C/C=C(\Nc2ccc(C(=O)OCC)cc2)C23CC4CC(CC(C4)C2)C3)cc1 has what recorded GI50? 51.1 µM (inactive)

Item COC(OC)[C@@H]1OC[C@H](n2ccc(=O)[nH]c2=O)[C@H]1O has what recorded GI50? > 100 µM (inactive)

Item COc1cccc(CCn2c(N)c(-c3cc(Cl)cc(Cl)c3)c3ccc([N+](=O)[O-])cc3c2=O)c1 has what recorded GI50? 3.1 µM (inactive)

Item C[C@H]1ON2CCC[C@@H]2[C@@H]1C(=O)N1C2CC3CCC2(CS1(=O)=O)C3(C)C (stereo not given in full) has what recorded GI50? > 100 µM (inactive)

Item Cc1ccc2c3c1O[C@H]1c4[nH]c5ccccc5c4C[C@@]4(O)[C@@H](C2)N(CC2CC2)CC[C@]314 has what recorded GI50? 12.1 µM (inactive)

Item Cc1ccc(S(=O)(=O)NC(CN)C(=O)O)cc1 (stereo not given) has what recorded GI50? > 100 µM (inactive)

Item Cc1cc2c(cc1Cl)Sc1nnc(Nc3ccccc3)n1S2(=O)=O has what recorded GI50? 5.7 µM (inactive)

Item CCOC(=O)C(=O)C(/C(=N/N(C)C)C(=O)Nc1ccc(C)cc1C)c1nc2ccccc2nc1O (stereo not given) has what recorded GI50? > 100 µM (inactive)

Item CC(C)OC1=C(CC2(C)OCCO2)C(=O)C12OCCO2 has what recorded GI50? > 100 µM (inactive)

Item COP(=O)(OC)C(O)CC(C)C (stereo not given) has what recorded GI50? > 100 µM (inactive)
